Data provenance is patent US9611249B2.

# measured.on: HGK (h) (MAP4K4) (Homo sapiens (Human), UniProt O95819)
# Sequence (O95819 whole entry): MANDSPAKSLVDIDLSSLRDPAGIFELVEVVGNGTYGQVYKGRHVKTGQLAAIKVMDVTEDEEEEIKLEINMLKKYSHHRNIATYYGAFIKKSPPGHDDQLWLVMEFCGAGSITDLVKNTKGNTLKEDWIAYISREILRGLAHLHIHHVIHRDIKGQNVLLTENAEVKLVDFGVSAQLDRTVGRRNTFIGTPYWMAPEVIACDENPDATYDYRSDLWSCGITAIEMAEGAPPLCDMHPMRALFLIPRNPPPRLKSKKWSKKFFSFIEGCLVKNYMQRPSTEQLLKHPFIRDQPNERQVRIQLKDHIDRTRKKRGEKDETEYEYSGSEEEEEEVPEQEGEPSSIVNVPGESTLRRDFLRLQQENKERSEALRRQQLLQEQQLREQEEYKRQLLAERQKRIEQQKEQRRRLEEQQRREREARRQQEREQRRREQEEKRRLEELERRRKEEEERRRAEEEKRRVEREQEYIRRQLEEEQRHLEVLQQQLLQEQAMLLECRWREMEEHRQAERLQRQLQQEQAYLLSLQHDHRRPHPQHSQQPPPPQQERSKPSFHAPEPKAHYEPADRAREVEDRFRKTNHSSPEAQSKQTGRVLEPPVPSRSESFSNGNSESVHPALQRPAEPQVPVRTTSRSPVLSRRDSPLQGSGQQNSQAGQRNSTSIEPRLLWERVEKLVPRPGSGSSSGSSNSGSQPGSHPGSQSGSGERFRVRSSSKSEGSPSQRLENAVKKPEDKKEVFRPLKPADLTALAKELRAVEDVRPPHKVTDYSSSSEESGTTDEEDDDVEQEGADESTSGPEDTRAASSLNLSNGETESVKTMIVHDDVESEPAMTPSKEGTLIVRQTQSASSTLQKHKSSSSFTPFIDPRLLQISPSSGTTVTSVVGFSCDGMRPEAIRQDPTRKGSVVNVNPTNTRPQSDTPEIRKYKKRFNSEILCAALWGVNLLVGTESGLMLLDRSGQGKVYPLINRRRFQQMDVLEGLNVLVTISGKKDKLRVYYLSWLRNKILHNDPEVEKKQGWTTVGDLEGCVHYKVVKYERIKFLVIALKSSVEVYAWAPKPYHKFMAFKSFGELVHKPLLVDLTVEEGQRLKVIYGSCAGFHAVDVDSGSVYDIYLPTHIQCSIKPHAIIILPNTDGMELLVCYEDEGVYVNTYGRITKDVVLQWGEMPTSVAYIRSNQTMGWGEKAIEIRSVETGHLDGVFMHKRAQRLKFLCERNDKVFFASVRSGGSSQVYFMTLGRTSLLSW
# assay.method.text: Kinase selectivity panel: HGK (h) (MAP4K4)
# Assay type: biochemical
# measurement.setup: 10 μM in duplicate, read-out: % inhibition of control values
measured.quantity: inhibition at 10 µM (%)
Please respond with the number in % and leave the unit unwritten.

Please fill in: inhibition at 10 µM reported for O=C(O)CN1CCC(CNC(=O)c2n[nH]c3ccc(-c4cccc(F)c4F)cc23)CC1 = 71

Please fill in: inhibition at 10 µM reported for COc1ccc2[nH]nc(C(=O)NCC3CCN(CC(=O)O)CC3)c2c1 = 8

Please fill in: inhibition at 10 µM reported for CCc1ccc2[nH]nc(C(=O)NCC3CCN(CC(=O)O)CC3)c2c1 = 10

Please fill in: inhibition at 10 µM reported for COCCN1CCC(CNC(=O)c2n[nH]c3ccc(OC)cc23)CC1 = 23

Please fill in: inhibition at 10 µM reported for COCCN1CCC(CNC(=O)c2n[nH]c3ccc(-c4cccc(F)c4F)cc23)CC1 = 72

Please fill in: inhibition at 10 µM reported for COc1ccc2[nH]nc(C(=O)NCC3CCN(CCC(=O)O)CC3)c2c1 = 3

###

# measured.on: IGF1R kinase (h) (Homo sapiens (Human), UniProt P08069)
# Sequence (P08069 31-1367): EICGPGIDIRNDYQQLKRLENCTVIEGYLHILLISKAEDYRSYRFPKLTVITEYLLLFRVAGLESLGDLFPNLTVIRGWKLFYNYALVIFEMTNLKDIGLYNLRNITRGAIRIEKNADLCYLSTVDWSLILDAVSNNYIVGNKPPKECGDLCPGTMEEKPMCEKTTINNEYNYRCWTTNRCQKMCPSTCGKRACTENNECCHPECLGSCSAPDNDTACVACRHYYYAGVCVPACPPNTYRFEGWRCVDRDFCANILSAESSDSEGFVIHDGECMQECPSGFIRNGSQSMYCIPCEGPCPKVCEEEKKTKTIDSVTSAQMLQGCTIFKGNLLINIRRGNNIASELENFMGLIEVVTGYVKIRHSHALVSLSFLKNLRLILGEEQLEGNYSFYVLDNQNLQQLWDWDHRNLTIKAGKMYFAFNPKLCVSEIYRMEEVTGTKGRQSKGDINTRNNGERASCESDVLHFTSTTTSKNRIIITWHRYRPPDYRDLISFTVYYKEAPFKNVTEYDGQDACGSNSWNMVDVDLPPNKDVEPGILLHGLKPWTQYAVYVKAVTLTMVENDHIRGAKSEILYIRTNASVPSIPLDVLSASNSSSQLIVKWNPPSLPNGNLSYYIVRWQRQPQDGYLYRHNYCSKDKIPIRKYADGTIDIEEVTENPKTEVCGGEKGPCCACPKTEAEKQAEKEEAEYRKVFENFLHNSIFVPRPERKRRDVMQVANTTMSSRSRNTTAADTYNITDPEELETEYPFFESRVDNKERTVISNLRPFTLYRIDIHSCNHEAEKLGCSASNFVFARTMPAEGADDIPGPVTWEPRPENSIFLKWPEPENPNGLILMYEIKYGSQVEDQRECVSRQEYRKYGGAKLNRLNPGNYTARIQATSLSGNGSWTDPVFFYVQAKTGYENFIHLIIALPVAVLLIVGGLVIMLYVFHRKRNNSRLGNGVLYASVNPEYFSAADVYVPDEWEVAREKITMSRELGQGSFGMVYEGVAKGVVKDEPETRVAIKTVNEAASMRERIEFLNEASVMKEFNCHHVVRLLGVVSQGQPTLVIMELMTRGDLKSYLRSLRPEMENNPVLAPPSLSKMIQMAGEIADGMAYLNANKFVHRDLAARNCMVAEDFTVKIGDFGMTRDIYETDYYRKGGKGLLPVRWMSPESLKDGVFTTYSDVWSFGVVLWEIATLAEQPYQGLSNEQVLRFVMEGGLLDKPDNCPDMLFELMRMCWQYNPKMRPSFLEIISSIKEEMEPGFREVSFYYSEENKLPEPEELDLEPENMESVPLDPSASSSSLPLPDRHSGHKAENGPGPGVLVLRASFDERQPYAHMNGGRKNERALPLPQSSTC
# assay.method.text: Kinase selectivity panel: IGF1R kinase (h)
# Assay type: biochemical
# measurement.setup: 10 μM in duplicate, read-out: % inhibition of control values
measured.quantity: inhibition at 10 µM (%)
Please respond with the number in % and leave the unit unwritten.

Please fill in: inhibition at 10 µM reported for COc1ccc2[nH]nc(C(=O)NCC3CCN(CCC(=O)O)CC3)c2c1 = 0

Please fill in: inhibition at 10 µM reported for COc1ccc2[nH]nc(C(=O)NCC3CCN(CC(=O)O)CC3)c2c1 = 0

Please fill in: inhibition at 10 µM reported for COCCN1CCC(CNC(=O)c2n[nH]c3ccc(OC)cc23)CC1 = 0

Please fill in: inhibition at 10 µM reported for COCCN1CCC(CNC(=O)c2n[nH]c3ccc(-c4cccc(F)c4F)cc23)CC1 = 3

###

# measured.on: TAOK2 (TAO1) (h) (Homo sapiens (Human), UniProt Q9UL54)
# Sequence (Q9UL54 whole entry): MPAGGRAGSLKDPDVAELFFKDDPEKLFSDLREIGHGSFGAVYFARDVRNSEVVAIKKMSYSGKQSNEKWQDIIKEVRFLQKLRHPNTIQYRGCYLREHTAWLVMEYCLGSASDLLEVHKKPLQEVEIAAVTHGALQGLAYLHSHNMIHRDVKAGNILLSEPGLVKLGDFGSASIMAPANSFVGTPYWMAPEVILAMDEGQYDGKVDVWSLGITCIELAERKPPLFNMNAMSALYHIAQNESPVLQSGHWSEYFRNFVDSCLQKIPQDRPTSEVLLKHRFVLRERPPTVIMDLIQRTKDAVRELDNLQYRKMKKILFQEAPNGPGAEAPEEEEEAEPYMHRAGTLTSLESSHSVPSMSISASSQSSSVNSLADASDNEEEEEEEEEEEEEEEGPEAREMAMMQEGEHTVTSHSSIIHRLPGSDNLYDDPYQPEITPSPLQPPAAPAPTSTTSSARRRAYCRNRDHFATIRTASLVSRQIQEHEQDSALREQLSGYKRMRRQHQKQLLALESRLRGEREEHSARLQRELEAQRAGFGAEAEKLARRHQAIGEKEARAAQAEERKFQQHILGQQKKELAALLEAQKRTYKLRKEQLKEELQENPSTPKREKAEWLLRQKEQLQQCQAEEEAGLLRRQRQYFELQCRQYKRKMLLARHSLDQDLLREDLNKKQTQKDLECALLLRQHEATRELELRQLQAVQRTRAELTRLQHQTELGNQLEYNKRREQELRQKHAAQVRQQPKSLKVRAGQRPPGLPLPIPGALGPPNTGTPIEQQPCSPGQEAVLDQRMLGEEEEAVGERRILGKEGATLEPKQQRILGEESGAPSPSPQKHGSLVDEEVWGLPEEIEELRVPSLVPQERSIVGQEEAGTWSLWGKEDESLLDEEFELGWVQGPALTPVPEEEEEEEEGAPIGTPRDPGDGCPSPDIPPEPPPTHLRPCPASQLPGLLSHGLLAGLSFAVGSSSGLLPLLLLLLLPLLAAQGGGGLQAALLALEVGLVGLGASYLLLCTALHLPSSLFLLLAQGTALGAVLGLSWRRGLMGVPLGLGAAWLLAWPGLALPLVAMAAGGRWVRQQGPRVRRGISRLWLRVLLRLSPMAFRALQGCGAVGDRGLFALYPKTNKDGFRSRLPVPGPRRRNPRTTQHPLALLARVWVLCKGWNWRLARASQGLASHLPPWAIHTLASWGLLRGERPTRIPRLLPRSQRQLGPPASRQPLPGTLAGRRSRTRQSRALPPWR
# assay.method.text: Kinase selectivity panel: TAOK2 (TAO1) (h)
# Assay type: biochemical
# measurement.setup: 10 μM in duplicate, read-out: % inhibition of control values
# Procedure: (a) Compounds 1 and 2 were tested against a panel of 60 kinases in order to assess their selectivity. The assays were chosen taking into consideration the diversity of assay families. […] Human recombinant kinases were incubated in the presence of specific peptide substrates plus ATP for different times (10, 15, 30, 60 or 90 minutes) at 22° C. Phosphorylated substrate was detected by LANCE or HTRF technology (CISBIO, MA, USA). […]
measured.quantity: inhibition at 10 µM
State the result as a value with its unit after it.

Observed inhibition at 10 µM on TAOK2 (TAO1) (h) (Homo sapiens (Human), UniProt Q9UL54), entry COc1ccc2[nH]nc(C(=O)NCC3CCN(CCC(=O)O)CC3)c2c1 , equals 0%

Observed inhibition at 10 µM on TAOK2 (TAO1) (h) (Homo sapiens (Human), UniProt Q9UL54), entry O=C(O)CN1CCC(CNC(=O)c2n[nH]c3ccc(-c4cccc(F)c4F)cc23)CC1 , equals 61%

Observed inhibition at 10 µM on TAOK2 (TAO1) (h) (Homo sapiens (Human), UniProt Q9UL54), entry CCc1ccc2[nH]nc(C(=O)NCC3CCN(CC(=O)O)CC3)c2c1 , equals 9%

Observed inhibition at 10 µM on TAOK2 (TAO1) (h) (Homo sapiens (Human), UniProt Q9UL54), entry COCCN1CCC(CNC(=O)c2n[nH]c3ccc(-c4cccc(F)c4F)cc23)CC1 , equals 79%

Observed inhibition at 10 µM on TAOK2 (TAO1) (h) (Homo sapiens (Human), UniProt Q9UL54), entry COCCN1CCC(CNC(=O)c2n[nH]c3ccc(OC)cc23)CC1 , equals 26%

Observed inhibition at 10 µM on TAOK2 (TAO1) (h) (Homo sapiens (Human), UniProt Q9UL54), entry COc1ccc2[nH]nc(C(=O)NCC3CCN(CC(=O)O)CC3)c2c1 , equals 3%
